System: Escherichia coli
Test: Antibacterial activity against Escherichia coli ATCC 25922 assessed as reduction in microbial growth after 24 hrs in presence of 6 mM of NH4Cl at by microtiter plate method
Assay type: functional
Bridge positions count the residues as written; N and C are the ends. Square brackets hold non-standard residues; d marks the D form. Peptide text beside a SMILES is read from it. * marks the point of attachment. Dip = N[C@H](C(=O)O)C(c1ccccc1)c1ccccc1; 2Nal = N[C@@H](Cc1ccc2ccccc2c1)C(=O)O; X1 = CC[C@H](C)CCCCC(=O)*; Dab = NCC[C@H](N)C(=O)O
Readout Kind: MIC (µg/mL)

Compound | Target Of Assay | Readout Kind | Unit Abbreviation | Assay Value
N=C(N)NCCC[C@@H]1NC(=O)[C@H](CCCNC(=N)N)NC(=O)[C@H](CCCNC(=N)N)NC(=O)[C@H](Cc2ccc3ccccc3c2)NC(=O)[C@H](Cc2ccc3ccccc3c2)NC(=O)[C@H](Cc2ccc3ccccc3c2)NC(=O)[C@H](CCCNC(=N)N)NC1=O (cyclo(RRRR[2Nal][2Nal][2Nal])) | Escherichia coli | MIC | µg/mL | 25
N=C(N)NCCC[C@@H]1NC(=O)[C@H](CCCNC(=N)N)NC(=O)[C@H](CCCNC(=N)N)NC(=O)[C@H](C(c2ccccc2)c2ccccc2)NC(=O)[C@H](C(c2ccccc2)c2ccccc2)NC(=O)[C@H](C(c2ccccc2)c2ccccc2)NC(=O)[C@H](CCCNC(=N)N)NC1=O (cyclo(RRRR[Dip][Dip][Dip])) | Escherichia coli | MIC | µg/mL | 12.5
CC[C@H](C)CCCCC(=O)N[C@@H](CCN)C(=O)N[C@H](C(=O)N[C@@H](CCN)C(=O)N[C@H]1CCNC(=O)[C@H]([C@@H](C)O)NC(=O)[C@H](CCN)NC(=O)[C@H](CCN)NC(=O)[C@H](CC(C)C)NC(=O)[C@@H](Cc2ccccc2)NC(=O)[C@H](CCN)NC1=O)[C@@H](C)O (X1-[Dab]T[Dab][Dab][Dab][dF]L[Dab][Dab]T; lactam 4-C) | Escherichia coli | MIC | µg/mL | 0.7
O=C(O)c1cn(C2CC2)c2cc(N3CCNCC3)c(F)cc2c1=O | Escherichia coli | MIC | µg/mL | 0.3
